Data credit: paper PMC3125126

# assayedSystem: human dopamine transporter (hDAT) (Homo sapiens)
# Sequence (Q01959 whole entry): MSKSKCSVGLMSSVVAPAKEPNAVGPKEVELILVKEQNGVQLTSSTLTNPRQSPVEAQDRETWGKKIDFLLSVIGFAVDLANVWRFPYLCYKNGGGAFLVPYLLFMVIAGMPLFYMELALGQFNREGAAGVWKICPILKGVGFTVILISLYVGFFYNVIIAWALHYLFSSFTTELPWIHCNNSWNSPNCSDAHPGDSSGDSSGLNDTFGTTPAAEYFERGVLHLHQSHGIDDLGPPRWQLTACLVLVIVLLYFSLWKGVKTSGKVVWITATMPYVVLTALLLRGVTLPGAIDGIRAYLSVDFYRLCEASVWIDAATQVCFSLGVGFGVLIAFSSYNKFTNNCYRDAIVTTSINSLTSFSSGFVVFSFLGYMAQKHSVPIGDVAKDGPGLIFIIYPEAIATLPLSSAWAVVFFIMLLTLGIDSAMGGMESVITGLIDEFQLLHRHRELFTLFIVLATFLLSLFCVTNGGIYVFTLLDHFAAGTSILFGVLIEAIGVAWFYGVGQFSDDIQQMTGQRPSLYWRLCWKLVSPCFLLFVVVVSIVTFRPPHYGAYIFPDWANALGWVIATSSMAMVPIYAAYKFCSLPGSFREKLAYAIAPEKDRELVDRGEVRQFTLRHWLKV
# runDescription: [125I]RTI-55 binding to membranes of HEK-D2-hDAT cells
# conditionsUsed: read-out: RTI-55 KD; no melittin, 4°C, 16 h; 4 independent experiments
recordedEndpoint: pKd
pKd is a log-scale quantity: -log10 of the concentration expressed in molar.

// pKd lookup, key: COC(=O)[C@H]1C(c2ccc(I)cc2)C[C@@H]2CC[C@H]1N2C (stereo partly shown) [RTI-55]
8.08
